Target: Prostaglandin G/H synthase 1 (Rattus norvegicus, UniProt Q63921)
Sequence (Q63921 whole entry): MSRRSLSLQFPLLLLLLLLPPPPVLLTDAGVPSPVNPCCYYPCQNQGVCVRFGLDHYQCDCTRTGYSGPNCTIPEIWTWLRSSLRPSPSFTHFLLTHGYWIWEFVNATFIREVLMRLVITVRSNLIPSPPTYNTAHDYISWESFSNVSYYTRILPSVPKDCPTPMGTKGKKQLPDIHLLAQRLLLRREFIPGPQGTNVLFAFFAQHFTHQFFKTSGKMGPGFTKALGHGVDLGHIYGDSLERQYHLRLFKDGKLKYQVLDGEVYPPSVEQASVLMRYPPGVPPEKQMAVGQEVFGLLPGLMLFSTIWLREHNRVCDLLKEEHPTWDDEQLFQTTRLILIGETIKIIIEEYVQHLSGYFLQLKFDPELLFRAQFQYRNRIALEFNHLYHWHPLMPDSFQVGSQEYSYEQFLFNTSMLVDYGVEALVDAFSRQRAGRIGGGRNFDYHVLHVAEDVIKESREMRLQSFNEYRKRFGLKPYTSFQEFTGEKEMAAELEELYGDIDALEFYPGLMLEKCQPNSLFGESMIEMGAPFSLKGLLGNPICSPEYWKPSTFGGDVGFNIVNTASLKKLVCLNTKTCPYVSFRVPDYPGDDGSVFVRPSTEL
EXPERIMENTAL_ENDPOINT: IC50 (µM)

Check out these entries, answers already filled in.
COc1ccc2c(Cc3ccc(C(C)(C)C)cc3)ccc(C(C)C(=O)O)c2c1 (centres undefined) | 40.8
COc1ccc2c(Cc3ccc(F)cc3)ccc(C(C)C(=O)O)c2c1 (centres undefined) | 1.7

I = CCc1ccc2c(Cc3ccc(Cl)cc3)ccc(C(C)C(=O)O)c2c1 (centres undefined)
II = COc1ccc(Cc2ccc(C(C)C(=O)O)c3cc(OC)ccc23)cc1 (centres undefined)
Smaller IC50 value, I vs II ? Answer format: the label of the selected item.
II
(II: 8.8 µM, I: 61 µM)

###

Measured IC50 values are reported for all entries that follow.
biological target: Prostaglandin G/H synthase 1 (Rattus norvegicus)

CCc1ccc(Cc2ccc(C(C)C(=O)O)c3cc(OC)ccc23)cc1 (stereo not given) | > 100 µM
COc1ccc2c(C(C)C(=O)O)ccc(Cc3ccc(F)cc3)c2c1 (stereo not given) | > 100 µM

So the reported IC50 for CC(C(=O)O)c1ccc(Cc2ccc(Cl)cc2)c2ccc(S(C)(=O)=O)cc12 (stereo not given) , on Prostaglandin G/H synthase 1 (Rattus norvegicus), turned out to be > 100 µM

So the reported IC50 for COc1ccc2c(Cc3ccc(Cl)cc3)c(CC(=O)O)ccc2c1 , on Prostaglandin G/H synthase 1 (Rattus norvegicus), turned out to be > 100 µM

So the reported IC50 for COc1ccc2c(Cc3ccccc3)ccc(C(C)C(=O)O)c2c1 (stereo not given) , on Prostaglandin G/H synthase 1 (Rattus norvegicus), turned out to be 1.5 µM

Origin of the recorded values: ChEMBL document CHEMBL1133804
